These entries and their values trace back to the supplement of paper PMC13172266.

test system: U2932 parental; test: cell proliferation relative to vehicle (% of vehicle); higher = less growth inhibition; details: 500 nM; 72 h
Structures can show the parent of a compound that is named as a salt.
metric name: cell proliferation
Lab note: record just the number, no unit beside it.

Please review the entries below; each comes with its answer.
[[record]]
compound = "O=c1cc(N2CCOCC2)oc2c(-c3ccccc3)cccc12"
recorded_value = 105

[[record]]
compound = "Cc1c(NC(=O)OC[C@@H]2COCCN2)cn2ncnc(Nc3ccc4c(cnn4Cc4cccc(F)c4)c3)c12"
recorded_value = 81.6

[[record]]
compound = "NC(=O)c1ccc(N(C(N)=O)c2c(F)cccc2F)nc1-c1ccc(F)cc1F"
recorded_value = 98.7


The compound "C[C@@H](Nc1cc(F)cc(F)c1)c1cc(C(=O)N(C)C)cc2c(=O)cc(N3CCOCC3)oc12" showed cell proliferation equal to 90.3

The compound CCCCCCCCc1ccc(CCC(N)(CO)CO)cc1 [Fingolimod (FTY720) HCl] showed cell proliferation equal to 94.8

The compound CC(C=CC(=O)NO)=CC(C)C(=O)c1ccc(N(C)C)cc1 (centres undefined) showed cell proliferation equal to 2.14

The compound CCCCc1nc2cc(/C=C/C(=O)NO)ccc2n1CCN(CC)CC [Pracinostat (SB939)] showed cell proliferation equal to 50.1

The compound "COc1cc2ncnc(Oc3ccc(CC(=O)Nc4cnn(C(C)C)c4)cc3)c2cc1OC" showed cell proliferation equal to 95.7

The compound "Cc1ccc(-c2cc(C(F)(F)F)nn2-c2ccc(S(N)(=O)=O)cc2)cc1" showed cell proliferation equal to 100
